This listing pairs compounds with measured pKd.
Biological target: β-catenin (Homo sapiens)
Assay: KD50 measurement using competitive fluorescence polarization (FP) with labelled TCF4
Assay type: binding
Settings: fluorescence polarization, β-catenin; read-out: β-Cat FP KD
pKd: −log10 of the molar value. Where a SMILES comes first, the peptide text is derived from it.

1. CC[C@H](C)[C@@H]1NC(=O)[C@H](CC(C)C)NC(=O)[C@H](Cc2ccccc2)NC(=O)[C@H](Cc2c[nH]c3ccccc23)NC(=O)[C@@H](N)CCCCNC(=O)CC[C@@H](C(=O)O)NC(=O)[C@H](Cc2c[nH]c3ccccc23)NC(=O)[C@H](Cc2ccccc2)NC(=O)[C@H](CS)NC1=O [compound 179] (HELM PEPTIDE1{K.W.F.L.I.C.F.W.E}$PEPTIDE1,PEPTIDE1,1:R3-9:R3$$$V2.0)
5.00 to 6.00
2. CC[C@H](C)[C@H](NC(=O)[C@H](CC(C)C)NC(=O)[C@@H]1CCC(=O)NCCCC[C@H](N)C(=O)N[C@@H](Cc2c[nH]c3ccccc23)C(=O)N1)C(=O)N[C@@H](CO)C(=O)N[C@@H](Cc1ccccc1)C(=O)N[C@@H](Cc1c[nH]c2ccccc12)C(=O)NCC(=O)O [compound 232] (HELM PEPTIDE1{K.W.E.L.I.S.F.W.G}$PEPTIDE1,PEPTIDE1,1:R3-3:R3$$$V2.0)
5.00 to 6.00

Please look at the following compound next.
Query block: // fetch β-catenin (Homo sapiens) pKd for CC[C@H](C)[C@H](NC(=O)[C@H](CC(C)C)NC(=O)[C@H](Cc1ccccc1)NC(C)=O)C(=O)N[C@@H](CO)C(=O)N[C@@H](Cc1ccccc1)C(=O)N[C@@H](Cc1c[nH]c2ccccc12)C(=O)NCC(=O)O [compound 239] (Ac-FLISFWG-OH)
Result block: 5.00 to 6.00

###

Target: β-catenin (Homo sapiens, UniProt P35222)
Sequence (P35222 whole entry): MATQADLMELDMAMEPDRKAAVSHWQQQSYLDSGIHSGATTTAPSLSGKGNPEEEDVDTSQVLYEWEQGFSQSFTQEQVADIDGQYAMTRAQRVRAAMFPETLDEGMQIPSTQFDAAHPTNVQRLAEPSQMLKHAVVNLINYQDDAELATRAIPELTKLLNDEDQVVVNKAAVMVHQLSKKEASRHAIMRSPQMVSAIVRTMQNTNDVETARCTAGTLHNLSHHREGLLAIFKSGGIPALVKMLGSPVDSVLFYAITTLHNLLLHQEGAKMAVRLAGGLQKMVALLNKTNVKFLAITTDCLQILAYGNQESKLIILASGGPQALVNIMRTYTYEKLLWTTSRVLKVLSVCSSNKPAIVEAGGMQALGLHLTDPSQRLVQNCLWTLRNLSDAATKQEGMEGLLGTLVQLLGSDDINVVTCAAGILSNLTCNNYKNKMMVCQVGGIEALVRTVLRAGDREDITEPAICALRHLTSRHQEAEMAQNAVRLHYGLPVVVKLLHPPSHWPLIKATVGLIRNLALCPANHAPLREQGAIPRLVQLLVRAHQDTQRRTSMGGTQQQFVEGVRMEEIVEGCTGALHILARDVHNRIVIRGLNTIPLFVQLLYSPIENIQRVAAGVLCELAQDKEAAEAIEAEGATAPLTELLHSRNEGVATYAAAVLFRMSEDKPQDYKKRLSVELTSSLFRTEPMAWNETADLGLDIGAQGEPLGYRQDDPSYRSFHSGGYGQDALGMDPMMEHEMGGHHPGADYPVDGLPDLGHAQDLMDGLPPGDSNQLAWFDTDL
Assay: KD50 measurement using competitive fluorescence polarization (FP) with labelled TCF4
Assay type: binding
Conditions: fluorescence polarization, β-catenin
Where a SMILES comes first, the peptide text is derived from it.
Measured Metric: β-Cat FP Hill slope
Give a plain numeric answer without units written out.

1) CC[C@H](C)[C@H](NC(=O)[C@H](CC(C)C)NC(=O)[C@@H](NC(=O)[C@H](Cc1c[nH]c2ccccc12)NC(=O)[C@@H](N)CCSC)[C@@H](C)CC)C(=O)N[C@@H](CS)C(=O)N[C@@H](Cc1ccccc1)C(=O)N[C@@H](Cc1c[nH]c2ccccc12)C(=O)NCC(=O)O [compound 116] (H-MWILICFWG-OH)
0.72

Query block: Fill in: β-Cat FP Hill slope of CC[C@H](C)[C@H](NC(=O)[C@H](CC(C)C)NC(=O)[C@@H](NC(=O)C(C)(Cc1c[nH]c2ccccc12)NC(=O)[C@@H](N)CCSC)[C@@H](C)CC)C(=O)N[C@@H](CO)C(=O)N[C@@H](Cc1ccccc1)C(=O)N[C@@H](Cc1c[nH]c2ccccc12)C(=O)NCC(=O)O (some centres unmarked) [compound 134] (HELM PEPTIDE1{M.[CC(Cc1c[nH]c2ccccc12)(N[*:1])C(=O)[*:2]].I.L.I.S.F.W.G}$$$$V2.0) is ___
Result block: 1.47

###

Molecular target: β-catenin (Homo sapiens, UniProt P35222)
Test: KD50 measurement using competitive fluorescence polarization (FP) with labelled TCF4
Type: binding
Settings: fluorescence polarization, β-catenin; read-out: β-Cat FP KD
Where a SMILES comes first, the peptide text is derived from it.
This listing pairs compounds with measured Kd.

Query block: Fill in: Kd of CC[C@H](C)[C@H](NC(=O)[C@H](CC(C)C)NC(=O)[C@H](Cc1ccccc1)NC(=O)[C@H](Cc1c[nH]c2ccccc12)NC)C(=O)N[C@@H](CO)C(=O)N[C@@H](Cc1ccccc1)C(=O)N[C@@H](Cc1c[nH]c2ccccc12)C(N)=O [compound 102] (HELM PEPTIDE1{[meW].F.L.I.S.F.W.[am]}$$$$V2.0) is ___
Result block: < 0.4 µM

Query block: Fill in: Kd of CC[C@H](C)[C@H](NC(=O)[C@H](CC(C)C)NC(=O)[C@H](Cc1ccccc1)NC(=O)[C@@H](N)Cc1c[nH]c2ccccc12)C(=O)N[C@@H](CO)C(=O)N[C@@H](CO)C(=O)N[C@@H](Cc1c[nH]c2ccccc12)C(=O)O [compound 97] (H-WFLISSW-OH) is ___
Result block: 1 to 10 µM

Query block: Fill in: Kd of CC[C@H](C)[C@H](NC(=O)[C@H](CC(C)C)NC(=O)[C@H](Cc1ccccc1)NC(=O)[C@H](Cc1c[nH]c2ccccc12)NC(=O)[C@H](CCSC)NC(=O)[C@H](CCCNC(=N)N)NC(=O)[C@H](CO)NC(=O)[C@@H](N)Cc1c[nH]c2ccccc12)C(=O)N[C@@H](CO)C(=O)N[C@@H](Cc1ccccc1)C(=O)N[C@@H](Cc1c[nH]c2ccccc12)C(N)=O [compound 79] (H-WSRMWFLISFW-NH2) is ___
Result block: > 30 µM

###

Molecular target: β-catenin (Homo sapiens)
Assay: KD50 measurement using competitive fluorescence polarization (FP) with labelled TCF4
Type: binding
Settings: fluorescence polarization, β-catenin
Where a SMILES comes first, the peptide text is derived from it. [ ]: non-standard residue; d: D form. The star is where a group is joined. ξ: configuration not given here. ξIle = CC[C@H](C)C(N)C(=O)O; Piv = CC(C)(C)C(=O)*
This listing pairs compounds with measured β-Cat FP Hill slope.
Give a plain numeric answer without units written out.

1. CSCC[C@H](N)C(=O)N[C@@H](Cc1c[nH]c2ccccc12)C(=O)N[C@@H](Cc1ccccc1)C(=O)N[C@@H](CC(C)C)C(=O)N[C@@H](C)C(=O)N[C@@H](CO)C(=O)N[C@@H](Cc1ccccc1)C(=O)N[C@@H](Cc1c[nH]c2ccccc12)C(=O)NCC(=O)O [compound 11] (H-MWFLASFWG-OH)
1.31
2. CC[C@H](C)[C@H](NC(=O)[C@H](CC(C)C)NC(=O)[C@@H](NC(=O)[C@H](Cc1c[nH]c2ccccc12)NC(C)=O)[C@@H](C)CC)C(=O)N[C@@H](C)C(=O)N[C@@H](Cc1ccccc1)C(=O)N[C@@H](Cc1c[nH]c2ccccc12)C(=O)NCC(=O)O [compound 263] (Ac-WILIAFWG-OH)
3
3. CC[C@H](C)[C@H](NC(=O)[C@H](CC(C)C)NC(=O)[C@H](Cc1ccccc1)NC(C)=O)C(=O)N[C@@H](CO)C(=O)N[C@@H](Cc1ccccc1)C(=O)N[C@@H](Cc1c[nH]c2ccccc12)C(=O)NCC(=O)O [compound 239] (Ac-FLISFWG-OH)
0.7
4. CC[C@H](C)C(NC(=O)[C@H](CC(C)C)NC(=O)C(NC(=O)[C@H](Cc1c[nH]c2ccccc12)NC(=O)[C@H](CCSC)NC(=O)C(C)(C)C)[C@@H](C)CC)C(=O)N[C@@H](CO)C(=O)N[C@@H](Cc1ccccc1)C(=O)N[C@@H](Cc1c[nH]c2ccccc12)C(=O)NCC(=O)O (stereo partly drawn) [compound 224] (Piv-MW[ξIle]L[ξIle]SFWG-OH)
1.04
5. CCOC[C@H](NC(=O)[C@H](CO)NC(=O)[C@@H](NC(=O)[C@H](CC(C)C)NC(=O)[C@H](Cc1ccccc1)NC(=O)[C@H](Cc1c[nH]c2ccccc12)NC(=O)[C@H](CCSC)NC(=O)[C@H](CCCNC(=N)N)NC(=O)[C@H](CO)NC(=O)[C@@H](N)CCSC)[C@@H](C)CC)C(=O)N[C@@H](Cc1c[nH]c2ccccc12)C(=O)O [compound 105] (H-MSRMWFLISS(Et)W-OH)
0.7

Query block: Fill in: β-Cat FP Hill slope of CC[C@H](C)[C@H](NC(=O)[C@H](CC(C)C)NC(=O)[C@H](Cc1ccccc1)NC(=O)[C@H](Cc1c[nH]c2ccccc12)NC(=O)[C@@H](N)CCSC)C(=O)N[C@@H](CS)C(=O)N[C@@H](Cc1ccccn1)C(=O)N[C@@H](Cc1c[nH]c2ccccc12)C(=O)NCC(=O)O [compound 148] (HELM PEPTIDE1{M.W.F.L.I.C.[O=C([C@H](Cc1ccccn1)N[*:1])[*:2]].W.G}$$$$V2.0) is ___
Result block: 0.7

###

Settings: % Viability non-Wnt responsive cells
Where a SMILES comes first, the peptide text is derived from it.
Measured Metric: viability (%)
Could you give me the number in %? Just the number is fine.

1. CC[C@H](C)[C@H](NC(=O)[C@H](CC(C)C)NC(=O)[C@H](Cc1ccccc1)NC(=O)[C@@H](N)Cc1c[nH]c2ccccc12)C(=O)N[C@@H](CO)C(=O)N[C@H](C(=O)N[C@@H](Cc1c[nH]c2ccccc12)C(=O)O)[C@@H](C)O [compound 103] (H-WFLISTW-OH)
102
2. CC[C@H](C)[C@H](NC(=O)[C@H](CC(C)C)NC(=O)[C@H](Cc1ccccc1)NC(=O)[C@H](Cc1c[nH]c2ccccc12)NC(=O)[C@@H](N)CCSC)C(=O)N[C@@H](C)C(=O)N[C@@H](C)C(=O)N[C@@H](Cc1c[nH]c2ccccc12)C(=O)NCC(=O)O [compound 212] (H-MWFLIAAWG-OH)
99.3

Please look at the following compound next.
Query block: Fill in: viability of CC[C@H](C)[C@H](NC(=O)[C@H](CC(C)C)NC(=O)[C@H](Cc1ccccc1)NC(=O)[C@H](Cc1c[nH]c2ccccc12)NC(=O)[C@H](CCSC)NC(=O)[C@H](CCCNC(=N)N)NC(=O)[C@H](CO)NC(=O)[C@@H](N)CCSC)C(=O)N[C@@H](CO)C(=O)N[C@@H](Cc1ccccc1)C(=O)N[C@@H](Cc1c[nH]c2ccccc12)C(=O)N[C@@H](CCC(=O)O)C(=O)NCC(=O)O [compound 57] (H-MSRMWFLISFWEG-OH) is ___
Result block: 104
